# SYSTEM_NAME: PAI-1 (Homo sapiens)
# Sequence (P05121 24-402): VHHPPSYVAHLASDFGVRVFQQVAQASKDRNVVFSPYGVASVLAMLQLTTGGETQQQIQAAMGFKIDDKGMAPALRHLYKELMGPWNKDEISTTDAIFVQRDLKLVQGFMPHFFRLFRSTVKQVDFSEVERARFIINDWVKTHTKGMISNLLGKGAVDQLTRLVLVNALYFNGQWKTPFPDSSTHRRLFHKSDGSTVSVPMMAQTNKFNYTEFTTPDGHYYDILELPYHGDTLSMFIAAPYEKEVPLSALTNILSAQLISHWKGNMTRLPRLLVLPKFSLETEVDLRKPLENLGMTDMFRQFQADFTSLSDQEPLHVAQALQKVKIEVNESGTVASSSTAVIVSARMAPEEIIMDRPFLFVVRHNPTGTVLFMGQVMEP
# MEASUREMENT_PROTOCOL: biochemical
# Format: biochemical
# ASSAY_CONDITIONS: 5 μm
Structures can show the parent of a compound that is named as a salt.
Exercise: state measured % Inhibition for each of the compounds provided.
Write down the numeric answer in % and omit the unit.

*Q* Tell me % Inhibition of CN(C)CCSc1ccc(/C=c2\[nH]c(=O)/c(=C/c3cccc(Br)c3)[nH]c2=O)cc1 [Compound 5425] when tested on PAI-1 (Homo sapiens).
*A* 37

*Q* Tell me % Inhibition of CN(C)CCSc1sc(/C=c2\[nH]c(=O)/c(=C/c3ccccc3)[nH]c2=O)cc1[N+](=O)[O-] [Compound 5403.HCl] when tested on PAI-1 (Homo sapiens).
*A* 12

*Q* Tell me % Inhibition of CN(C)CCSc1ccc(/C=c2\[nH]c(=O)/c(=C/c3ccccn3)[nH]c2=O)s1 [Compound 5471.HCl] when tested on PAI-1 (Homo sapiens).
*A* 1

*Q* Tell me % Inhibition of CN(C)CC[S+]([O-])c1ccc(/C=c2\[nH]c(=O)/c(=C/c3ccccc3)[nH]c2=O)cc1 (stereo not shown) [Compound 5141.HCl] when tested on PAI-1 (Homo sapiens).
*A* 0

*Q* Tell me % Inhibition of CN(C)CCSc1ccc(/C=c2\[nH]c(=O)/c(=C/c3ccoc3)[nH]c2=O)cc1 [Compound 5129.HCl] when tested on PAI-1 (Homo sapiens).
*A* 51

*Q* Tell me % Inhibition of CN(C)CCSc1ccc(/C=c2\[nH]c(=O)/c(=C/c3cn(C)c4ccccc34)[nH]c2=O)cc1 [Compound 5497] when tested on PAI-1 (Homo sapiens).
*A* 17

*Q* Tell me % Inhibition of CN(C)CCSc1ccc(/C=c2\[nH]c(=O)/c(=C/c3ccc([N+](=O)[O-])cc3)[nH]c2=O)cc1 [Compound 5461.HCl] when tested on PAI-1 (Homo sapiens).
*A* 10

*Q* Tell me % Inhibition of COc1cccc(/C=c2\[nH]c(=O)/c(=C/c3ccc(SCCN(C)C)cc3)[nH]c2=O)c1 [Compound 5438.HCl] when tested on PAI-1 (Homo sapiens).
*A* 3

*Q* Tell me % Inhibition of CN(C)CCSc1ccc(/C=c2\[nH]c(=O)/c(=C/c3cccc(OCc4ccccc4)c3)[nH]c2=O)cc1 [Compound 5486] when tested on PAI-1 (Homo sapiens).
*A* 13

*Q* Tell me % Inhibition of CN(C)CCSc1ccc(/C=c2\[nH]c(=O)/c(=C/c3ccc(OCc4ccccc4)cc3)[nH]c2=O)s1 [Compound 5482.HCl] when tested on PAI-1 (Homo sapiens).
*A* 13

*Q* Tell me % Inhibition of CN(C)CCSc1ccc(/C=c2\[nH]c(=O)/c(=C/c3cccc(C(F)(F)F)c3)[nH]c2=O)cc1 [Compound 5423.HCl] when tested on PAI-1 (Homo sapiens).
*A* 2

*Q* Tell me % Inhibition of COc1ccc2ccccc2c1/C=c1\[nH]c(=O)/c(=C/c2ccc(SCCN(C)C)s2)[nH]c1=O [Compound 5499.HCl] when tested on PAI-1 (Homo sapiens).
*A* 0

*Q* Tell me % Inhibition of CN(C)CCSc1ccc(/C=c2\[nH]c(=O)/c(=C/c3ccncc3)[nH]c2=O)s1 when tested on PAI-1 (Homo sapiens).
*A* 0

*Q* Tell me % Inhibition of COc1cc(/C=c2\[nH]c(=O)/c(=C/c3ccc(SCCN(C)C)cc3)[nH]c2=O)ccc1OCc1ccc([N+](=O)[O-])cc1 [Compound 5490.HCl] when tested on PAI-1 (Homo sapiens).
*A* 12

*Q* Tell me % Inhibition of CN(C)CCSc1ccc(/C=c2\[nH]c(=O)/c(=C/c3ccc([N+](=O)[O-])cc3)[nH]c2=O)cc1 [Compound 5461] when tested on PAI-1 (Homo sapiens).
*A* 1

*Q* Tell me % Inhibition of CN(C)CCSc1ccc(/C=c2\[nH]c(=O)/c(=C/c3ccc(Br)cc3)[nH]c2=O)s1 [Compound 5489] when tested on PAI-1 (Homo sapiens).
*A* 6
